Cited source for all entries: patent US20100056508A1

# assayed.system: recombinant human Dopamine Subtype D2s receptors (Homo sapiens)
# Construct: purchased Perkin Elmer
# Sequence (P14416 1-414 isoform P14416-2): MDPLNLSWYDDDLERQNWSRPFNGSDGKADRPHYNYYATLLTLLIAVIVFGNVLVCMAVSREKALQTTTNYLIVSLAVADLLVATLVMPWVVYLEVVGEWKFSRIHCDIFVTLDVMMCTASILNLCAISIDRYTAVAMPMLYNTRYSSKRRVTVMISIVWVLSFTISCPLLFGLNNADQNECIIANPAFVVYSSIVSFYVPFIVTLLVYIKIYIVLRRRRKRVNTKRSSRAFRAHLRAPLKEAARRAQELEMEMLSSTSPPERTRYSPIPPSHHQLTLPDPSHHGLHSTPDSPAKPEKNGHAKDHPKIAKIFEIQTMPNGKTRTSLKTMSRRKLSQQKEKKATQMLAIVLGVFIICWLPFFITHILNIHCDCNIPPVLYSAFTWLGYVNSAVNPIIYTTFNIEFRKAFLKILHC
# protocol.description: Dopamine D2 selectivity assay, [3H]-spiperone binding to membranes
# applied.conditions: inhibition of [3H]-spiperone binding, read-out: D2 bind pIC50 (converted)
Where a name gives a salt, the structure may show the parent alone.
readout.name: IC50 (nM)

1. C[C@H](C1CCCCC1)N(CCNCCc1ccc(O)c2c1OCC(=O)N2)C(=O)CCNCCc1ccccc1 [Example 61, bis(trifluoroacetate)]; 100
2. CCCC[C@@H](C)N(CCNCCc1ccc(O)c2c1OCC(=O)N2)C(=O)CCNCCc1ccc(F)c(F)c1 [Example 52, bis(trifluoroacetate)]; 63.1
3. O=C1COc2c(CCNCCN(C(=O)CCOCCc3cccc(F)c3)C3CCCCC3)ccc(O)c2N1 [Example 74, trifluoroacetate]; 2000
4. CCCC[C@@H](C)N(CCNCCc1ccc(O)c2c1OCC(=O)N2)C(=O)CCNCCc1ccc(Cl)s1 [Example 49, bis(trifluoroacetate)]; 63.1
5. O=C(CCNCCc1cc(F)ccc1F)N(CCNCCc1ccc(O)c2[nH]c(=O)ccc12)C1CCCCC1 [Example 17, bis(trifluoroacetate)]; 1260

[A] CCCC[C@@H](C)N(CCNCCc1ccc(O)c2c1OCC(=O)N2)C(=O)CCNCCc1cc(F)cc(F)c1 [Example 51, bis(trifluoroacetate)]
[B] O=C(CCNCCc1cccc(F)c1)N(CCNCCc1ccc(O)c2[nH]c(=O)ccc12)C1CCCCC1
[C] CCCC[C@@H](C)N(CCNCCc1ccc(O)c2c1OCC(=O)N2)C(=O)CCNCCc1ccc(F)c(Cl)c1 [Example 48, bis(trifluoroacetate)]
[D] CC(C)[C@@H](C)N(CCNCCc1ccc(O)c2[nH]c(=O)ccc12)C(=O)CCOCCc1ccccc1.Cl [Example 80, hydrochloride]
[E] O=C(CCNCCc1ccc(Cl)cc1)N(CCNCCc1ccc(O)c2[nH]c(=O)ccc12)C1CCCCC1 [Example 14, bis(trifluoroacetate)]
Lookup: Falling order of IC50, please. Please reply with the labels ordered as requested. Many thanks.
Found: D, B, E, C, A
